biological target: X-box-binding protein 1 (Homo sapiens); assay: ATG_Xbp1_CIS: Attagene CIS-FACTORIAL HepG2 Assay for human X-box Binding Protein 1 (XBP1) (AID 2282972); conditions: HepG2 XBP1 cis-element reporter, Attagene multiplex; actives raise or lower the signal
Active and inactive are the calls of the source. The calls were made as follows: active = hit-call score of the fitted dose curve at least 0.9, where 1 is the maximum; inactive = score below 0.9.
Outcome (select one): active, inactive

Solved cases below.
Oc1ccc(Cc2ccc(O)cc2)cc1	inactive
Cc1cc(SCc2sc(-c3ccc(C(F)(F)F)c(F)c3)nc2C)ccc1OCC(=O)O	active
O=NN1CCCCCCC1	inactive
CC(c1ccccc1)(c1ccc(O)cc1)c1ccc(O)cc1	active
CC(C)O.CC(C)O.OCCN(CCO)CCO.OCCN(CCO)CCO.[Ti]	inactive
C[C@@H]1O[C@@H](O[C@H]2C[C@@H](O)[C@]3(CO)[C@H]4[C@H](O)C[C@]5(C)[C@@H](C6=CC(=O)OC6)CC[C@]5(O)[C@@H]4CC[C@]3(O)C2)[C@H](O)[C@H](O)[C@H]1O	active

Continue with the compound presented below.
Request: GET /call?item= CC(F)(F)CC(F)(F)F returns the recorded outcome of this test.
Result: inactive
